System: ND3 neuronal cell line
Assay procedure: Measurement of nerve growth stimulation effect (neurite bearing assay, neurite length assay, number of cells)
Type: cell-based
Test settings: 3 μM; 6 hours; relative cell number, DMSO well = 1
Procedure: To evaluate the nerve growth stimulation effect, neurite bearing assay (proportion of neurite-bearing cells) and neurite length assay (neurite length) were analyzed with reference to the method of Topalli et al. (Brain Research 1030 (2004), pp. 116-124). An ND3 neuronal cell line (European Collection of Authenticated Cell Cultures) was seeded in a DMEM medium containing 10% fetal bovine serum (0.6×10^4 cells/1 mL) in a 24-well plate. […]
# Lookup of reported viability at 3 µM keyed by entry
Just the number in %, nothing appended.

Some solved entries appear below for comparison.
[
  {
    "Compound": "CC1=C(CCCCCCCCCCCCO)C(C)(C)CCC1=O [Compound 1, reference compound]",
    "viability at 3 µM, %": 105
  },
  {
    "Compound": "COCCCCCCCCCCCCCCCC1=C(COC)C(=O)CCC1(C)C",
    "viability at 3 µM, %": 88
  },
  {
    "Compound": "CCOCCCCCCCCCCCCCCCC1=C(C)C(=O)CCC1(C)C",
    "viability at 3 µM, %": 103
  }
]

For reference, reported viability at 3 µM for `CCOC(=O)OCCCCCCCCCCCCCCCC1=C(C)C(=O)CCC1(C)C` stands at 93

For reference, reported viability at 3 µM for `COCCCCCCCCCCCCCCCC1=C(C)C(=O)CCC12CC2` stands at 90

For reference, reported viability at 3 µM for `COCCCCCCCCCCCCCCCC1=C(I)C(=O)CCC1(C)C` stands at 104

Hey, just so you know, these numbers are from patent US20230295068A1.
